Target: T1, Recombinant human CD137/His (human, UniProt Q07011 24-186)
T1 construct: Analyte of the SPR assay; also called 4-1BB; TNFRSF9; not shown: His tag
Experiment: SPR (Biacore), antibody captured on anti-human Fc, human CD137/His as analyte, 1:1 fit
Method: This example illustrates binding affinities of exemplary anti-CD137 antibodies disclosed herein. Affinities were determined using surface plasmon resonance (Biacore). Briefly, anti-human Fc antibody (GE, BR-1008-39) was immobilized on CM5 sensor chip to approximately 1000 RU using standard NHS/EDC coupling methodology. Antibodies (about 10 μg/ml) were captured for 60 s at a flow rate 10 μl/min Recombinant human CD137/His was serially diluted in running buffer (HBS-EP). […]
kon values for the binders below.
# output: bare number, implied unit M⁻¹ s⁻¹

anti-CD137 antibody MSC8 (antibody, V domains shown, Variant of D6 with the same light chain variable domain) VH: QMQLVQSGAEVKKPGASVKVSCKASGYNFGGYYMHWVRQAPGQGLEWMGWVNPKSGGTNYAQKFQGRVTITRDTSASTAYMELSSLRSEDTAVYYCAREGEAVGLDLDYWGQGTLVTVSS VL: SYELTQPPSVSVAPGKTARITCGGNNIGSKSVHWYQQKPGQAPVLVIYYDSDRPSGIPERFSGSNSGNTATLTISRVEAGDEADYYCQVWDSSSVVFGGGTQLTVL ... 282000

Per the record, anti-CD137 antibody MB12 (antibody, V domains shown, Variant of D6 with the same light chain variable domain) VH: QMQLVQSGAEVKKPGASVKVSCKASGYSLEGYYMHWVRQAPGQGLEWMGWINPNSGGTNYAQKFQGRVTITRDTSASTAYMELSSLRSEDTAVYYCAREGEAVGLDLDYWGQGTLVTVSS VL: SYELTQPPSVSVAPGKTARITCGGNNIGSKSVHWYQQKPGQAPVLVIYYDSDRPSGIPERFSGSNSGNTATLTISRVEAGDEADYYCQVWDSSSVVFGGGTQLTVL has kon of 433000
